assayedTarget: UBE2M; further: test concentration or dose not given here
assayProcedure: reporter assay of Huesken 2005
measurementSetup: siRNA
Oligonucleotides are written 5' to 3', each unit as a sugar letter and its base; * is a phosphorothioate linkage, no mark a phosphodiester; rarer units and linkages stand in square brackets, end groups in braces. Plain capitals give the bases only. d = 2'-deoxy (DNA); r = 2'-OH (RNA)
attributeMeasured: normalised inhibition (eCFP-eYFP dual reporter) (%)
Please state the figure in %; there is no need to write the unit.

>  <substance>
sense rCrUrUrCrUrUrGrGrArGrCrCrCrArArCrCrCrCdTdT / antisense rGrGrGrGrUrUrGrGrGrCrUrCrCrArArGrArArGdAdG

>  <obsValue>
61.3

$$$$
>  <substance>
sense rCrUrUrGrGrArGrCrCrCrArArCrCrCrCrGrArGdTdT / antisense rCrUrCrGrGrGrGrUrUrGrGrGrCrUrCrCrArArGdAdA

>  <obsValue>
64.5

$$$$
>  <substance>
sense rArGrGrArCrUrGrGrArArGrCrCrArGrUrCrCrUdTdT / antisense rArGrGrArCrUrGrGrCrUrUrCrCrArGrUrCrCrUdCdT

>  <obsValue>
54.1

$$$$
>  <substance>
sense rGrUrGrGrGrCrCrArGrGrGrUrUrArCrCrCrGrCdTdT / antisense rGrCrGrGrGrUrArArCrCrCrUrGrGrCrCrCrArCdCdT

>  <obsValue>
56.4

$$$$
>  <substance>
sense rCrArArUrGrGrUrCrUrArUrCrArCrCrCrCrArAdTdT / antisense rUrUrGrGrGrGrUrGrArUrArGrArCrCrArUrUrGdTdC

>  <obsValue>
86.1

$$$$

Specify measured normalised inhibition (eCFP-eYFP dual reporter) for sense rUrUrCrUrArCrArArGrArGrUrGrGrGrArArGrUdTdT / antisense rArCrUrUrCrCrCrArCrUrCrUrUrGrUrArGrArAdGdC .
68.9

Annotate the substance sense rGrGrGrCrArGrCrArGrCrArArGrArArGrGrCrGdTdT / antisense rCrGrCrCrUrUrCrUrUrGrCrUrGrCrUrGrCrCrCdTdT with its measured normalised inhibition (eCFP-eYFP dual reporter).
58.9

Assign normalised inhibition (eCFP-eYFP dual reporter) to the following record: sense rGrUrUrCrArGrUrUrUrUrArArGrGrUrGrGrGrCdTdT / antisense rGrCrCrCrArCrCrUrUrArArArArCrUrGrArArCdAdC
53.9

Please report normalised inhibition (eCFP-eYFP dual reporter) for the following substance: sense rGrArGrUrCrGrGrCrGrGrGrCrGrGrCrArCrCrAdTdT / antisense rUrGrGrUrGrCrCrGrCrCrCrGrCrCrGrArCrUrCdCdT
53

Supply recorded normalised inhibition (eCFP-eYFP dual reporter) for sense rGrCrCrArGrUrCrCrUrUrArCrGrArUrArArArCdTdT / antisense rGrUrUrUrArUrCrGrUrArArGrGrArCrUrGrGrCdTdT here.
68.5

Identify the reported normalised inhibition (eCFP-eYFP dual reporter) for the following entry. sense rCrUrGrCrArGrArArCrArArCrCrGrGrCrGrGrCdTdT / antisense rGrCrCrGrCrCrGrGrUrUrGrUrUrCrUrGrCrArGdGdA
64.1

Kindly indicate its recorded normalised inhibition (eCFP-eYFP dual reporter). Item: sense rGrGrCrCrGrCrArGrArGrGrUrCrCrUrGrCrArGdTdT / antisense rCrUrGrCrArGrGrArCrCrUrCrUrGrCrGrGrCrCdTdC
66.4
